# test-summary: self-splicing fitness, log relative to wild type (ln ratio); higher = more splicing; Tetrahymena group I intron in knt gene, E. coli kanamycin selection, DiMSum; sequences stand for … in CUCUCU…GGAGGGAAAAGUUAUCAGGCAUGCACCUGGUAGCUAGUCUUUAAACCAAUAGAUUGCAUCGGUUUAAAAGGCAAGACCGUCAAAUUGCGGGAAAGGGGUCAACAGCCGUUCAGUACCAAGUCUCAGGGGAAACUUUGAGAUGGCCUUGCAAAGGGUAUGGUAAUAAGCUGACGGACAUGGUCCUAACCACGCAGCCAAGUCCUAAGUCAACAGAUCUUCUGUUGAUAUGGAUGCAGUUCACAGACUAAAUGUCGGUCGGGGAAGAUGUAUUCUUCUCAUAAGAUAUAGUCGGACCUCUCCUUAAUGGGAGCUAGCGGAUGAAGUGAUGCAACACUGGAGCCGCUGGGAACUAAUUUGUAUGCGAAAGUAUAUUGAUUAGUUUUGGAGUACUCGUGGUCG;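 further: selection with 25 µg/mL kanamycin versus none on LB agar overnight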
# measurement-parameters: 37 °C
attribute-measured: self-splicing fitness (ln)

# polymer-sequence, quantitative-readout
data = [
    ("AGAUAGCAAUAUUACGCCAC", -2.5),
    ("CAAAAGCAAUAUUACGUUAA", -2.06),
    ("UUAUAGCAAUAUUACGAACG", -0.293),
    ("CCACAGCAAUAUUACGUUCG", -0.208),
    ("ACACAGCAAUAUUACGCUUA", -1.7),
    ("UGCGAGCAAUAUUACGAAAC", -3.8),
    ("CGACAGCAAUAUUACGAUUG", -0.877),
    ("CAUAAGCAAUAUUACGGGGU", -2.46),
    ("AAACAGCAAUAUUACGGUGG", -1.93),
    ("ACAGAGCAAUAUUACGACCU", -0.728),
    ("CUAGAGCAAUAUUACGUGCC", -1.41),
    ("CAUCAGCAAUAUUACGCUUU", -1.34),
    ("CUGGAGCAAUAUUACGACCG", 0.106),
    ("UCCCAGCAAUAUUACGGUUU", -0.274),
    ("CGGAAGCAAUAUUACGUGGG", -2.85),
    ("GCGCAGCAAUAUUACGGCGA", -0.173),
    ("GACCAGCAAUAUUACGGCGG", -2.79),
    ("CUGCAGCAAUAUUACGAGUG", 0.112),
    ("ACUAAGCAAUAUUACGAUUU", -0.0751),
    ("UGGAAGCAAUAUUACGGGUU", -2.38),
    ("CGCUAGCAAUAUUACGAGGG", -2.44),
    ("GAUCAGCAAUAUUACGUAAG", -1.13),
    ("GUGCAGCAAUAUUACGAAUU", -0.441),
    ("CACCAGCAAUAUUACGGGAA", -1.07),
    ("CACUAGCAAUAUUACGGCGU", -0.74),
    ("CCUAAGCAAUAUUACGCUCG", -2.15),
    ("UCGGAGCAAUAUUACGAUCA", -1.23),
    ("AUAUAGCAAUAUUACGCGAC", -2.32),
    ("UAACAGCAAUAUUACGGGCU", -2.3),
    ("AGCCAGCAAUAUUACGGCCA", -0.322),
    ("CUCUAGCAAUAUUACGAUGC", -3.25),
    ("AUUUAGCAAUAUUACGGCGC", -0.248),
    ("UUACAGCAAUAUUACGGCAG", 0.248),
    ("UUCAAGCAAUAUUACGGUAU", -1.64),
]

###

# self-splicing fitness (ln) values compiled below
# test-summary: self-splicing fitness, log relative to wild type (ln ratio); higher = more splicing; Tetrahymena group I intron in knt gene, E. coli kanamycin selection, DiMSum; sequences stand for … in CUCUCU…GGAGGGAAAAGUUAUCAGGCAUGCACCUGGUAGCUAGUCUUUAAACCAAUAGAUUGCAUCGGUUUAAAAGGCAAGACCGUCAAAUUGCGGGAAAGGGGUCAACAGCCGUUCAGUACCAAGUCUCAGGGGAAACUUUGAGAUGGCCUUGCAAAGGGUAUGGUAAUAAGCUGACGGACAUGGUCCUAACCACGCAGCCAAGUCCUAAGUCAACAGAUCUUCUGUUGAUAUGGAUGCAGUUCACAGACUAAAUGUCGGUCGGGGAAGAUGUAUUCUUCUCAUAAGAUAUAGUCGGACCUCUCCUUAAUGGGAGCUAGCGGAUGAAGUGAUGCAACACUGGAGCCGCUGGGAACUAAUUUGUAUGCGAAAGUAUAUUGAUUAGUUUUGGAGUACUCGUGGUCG
# measurement-parameters: 37 °C
attribute-measured: self-splicing fitness (ln)

# polymer-sequence, quantitative-readout
data = [
    ("UAGUAGCAAUAUUACGUAUA", -1.14),
    ("GGCUAGCAAUAUUACGUACG", 0.365),
    ("CCUUAGCAAUAUUACGCACU", -1.29),
    ("UUAAAGCAAUAUUACGACUU", -0.0515),
    ("CACGAGCAAUAUUACGCGCU", -2.01),
    ("UCCGAGCAAUAUUACGUUAU", -1.93),
    ("CAGUAGCAAUAUUACGACUA", 0.675),
    ("GGUGAGCAAUAUUACGAUCA", -0.356),
    ("CCUGAGCAAUAUUACGUGGG", -2.85),
    ("CAUCAGCAAUAUUACGUGCA", -1.97),
    ("AAAAAGCAAUAUUACGCAUC", -1.34),
    ("UUGCAGCAAUAUUACGUUCG", -0.636),
    ("CUACAGCAAUAUUACGCCCC", -1.4),
    ("UCCGAGCAAUAUUACGUCUU", -1.62),
    ("GCAAAGCAAUAUUACGAGUC", -2.6),
    ("GGGUAGCAAUAUUACGCAGU", -1.02),
    ("CGUAAGCAAUAUUACGAUAU", -2.77),
    ("GCUUAGCAAUAUUACGUAGA", 0.396),
    ("CGAGAGCAAUAUUACGCCUC", -1.27),
    ("CAAAAGCAAUAUUACGCCAC", -1.89),
    ("GGUCAGCAAUAUUACGUAGG", -1.84),
    ("GACCAGCAAUAUUACGCUAG", -0.88),
    ("CUCAAGCAAUAUUACGGGAA", -1.19),
    ("UCCAAGCAAUAUUACGCUUG", -2.11),
    ("AAUUAGCAAUAUUACGCAGA", -1.24),
    ("UUCUAGCAAUAUUACGGUAC", -2.76),
    ("CUCUAGCAAUAUUACGAGAA", -2.02),
    ("GUUAAGCAAUAUUACGAGCA", -0.552),
    ("AGCGAGCAAUAUUACGCGCG", -1.89),
    ("GCAGAGCAAUAUUACGGGAC", -1.65),
    ("UGGAAGCAAUAUUACGUAAG", -0.81),
    ("GCCUAGCAAUAUUACGCGGG", -3.1),
    ("GCACAGCAAUAUUACGCUUG", -1.39),
    ("GCCCAGCAAUAUUACGCGUG", -2.41),
]

###

# test-summary: self-splicing fitness, log relative to wild type (ln ratio); higher = more splicing; Tetrahymena group I intron in knt gene, E. coli kanamycin selection, DiMSum; sequences stand for … in CUCUCU…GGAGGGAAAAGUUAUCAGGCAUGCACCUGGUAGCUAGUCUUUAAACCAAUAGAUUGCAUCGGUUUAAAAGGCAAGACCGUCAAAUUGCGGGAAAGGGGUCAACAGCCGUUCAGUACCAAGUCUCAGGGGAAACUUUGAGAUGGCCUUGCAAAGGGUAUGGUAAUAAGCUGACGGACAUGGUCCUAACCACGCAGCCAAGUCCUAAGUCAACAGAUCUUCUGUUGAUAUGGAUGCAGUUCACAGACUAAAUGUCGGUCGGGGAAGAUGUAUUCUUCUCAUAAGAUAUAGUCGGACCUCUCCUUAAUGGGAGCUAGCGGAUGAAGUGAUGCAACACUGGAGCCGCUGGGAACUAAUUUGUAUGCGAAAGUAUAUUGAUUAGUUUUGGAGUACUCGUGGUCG
# measurement-parameters: 37 °C
# self-splicing fitness (ln) values compiled below

# polymer-sequence, self-splicing fitness (ln)
rows = [
    ("GUUAAGCAAUAUUACGCAUU", -1.1),
    ("GUGGAGCAAUAUUACGUCGC", -1.71),
    ("CUUGAGCAAUAUUACGCUAU", -2.58),
    ("CACUAGCAAUAUUACGGGAU", -2.58),
    ("AUACAGCAAUAUUACGUCUG", -1.4),
    ("GACGAGCAAUAUUACGAGUG", -2.63),
    ("UGUGAGCAAUAUUACGUUUG", -2.76),
    ("ACUAAGCAAUAUUACGGCCA", 0.00289),
    ("CCCGAGCAAUAUUACGCUCU", -2.7),
    ("GUGAAGCAAUAUUACGACUC", -0.398),
    ("AACGAGCAAUAUUACGAAUA", -1.63),
    ("AAAUAGCAAUAUUACGUUCA", 0.187),
    ("CCAGAGCAAUAUUACGGGCA", -2.64),
    ("GCUUAGCAAUAUUACGUUCU", 0.0827),
    ("GGCCAGCAAUAUUACGAUUG", -1.74),
    ("AGUAAGCAAUAUUACGAGCC", -0.472),
    ("UUAAAGCAAUAUUACGUUCA", 0.233),
    ("AGACAGCAAUAUUACGUGCC", -0.815),
    ("GGACAGCAAUAUUACGUCAC", -1.56),
    ("GAGUAGCAAUAUUACGUUCG", -0.913),
    ("CAACAGCAAUAUUACGGAAG", -0.607),
    ("GGCCAGCAAUAUUACGCAAA", -1.02),
    ("UGCUAGCAAUAUUACGCAUU", -1.85),
    ("UUCUAGCAAUAUUACGUUGA", -1.47),
    ("CCGAAGCAAUAUUACGUGCC", -2.64),
    ("CUCCAGCAAUAUUACGAACC", -1.91),
    ("GACAAGCAAUAUUACGGGGA", -1.75),
    ("GCUUAGCAAUAUUACGCCAC", -1.17),
    ("AAGGAGCAAUAUUACGCGCG", -0.975),
    ("CUACAGCAAUAUUACGCUUG", -2.26),
    ("GAUAAGCAAUAUUACGGUCA", -0.711),
    ("UGGUAGCAAUAUUACGGGCA", 0.591),
    ("UGCUAGCAAUAUUACGUCAU", -2.61),
    ("CUCGAGCAAUAUUACGUGAU", -0.542),
]

Where do these numbers come from? They come from the supplement of paper PMC7877785.
